What pIC50 was measured for each of the following?
SYSTEM_UNDER_TEST: human Cat S (Homo sapiens (Human), UniProt P25774)
Sequence (P25774 115-331): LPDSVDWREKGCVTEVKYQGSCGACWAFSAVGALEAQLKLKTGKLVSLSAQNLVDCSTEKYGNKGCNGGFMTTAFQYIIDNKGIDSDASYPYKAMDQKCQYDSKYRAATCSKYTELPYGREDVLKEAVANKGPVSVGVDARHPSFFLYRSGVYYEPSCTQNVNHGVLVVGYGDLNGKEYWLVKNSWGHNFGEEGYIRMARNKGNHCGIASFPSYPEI
ASSAY_PROTOCOL: Cathepsin enzyme inhibition assay (fluorogenic peptide substrate)
Type: biochemical
TEST_CONTEXT: read-out: CatS IC50
pIC50 here: minus log base 10 of the concentration, concentration in moles per litre.

Entry Cc1[nH]c(-c2ccc(C(F)(F)F)cc2)nc1CN1CCC(N2C(=O)Cc3ccccc32)CC1 : reported pIC50 = ? 6.11

Could you share which pIC50 value was measured for Cc1[nH]c(-c2ccc(C(F)(F)F)cc2)nc1CN1CCC(N2C(=O)Cc3cc(Cl)ccc32)CC1 ? 6.35

Look up pIC50: Cc1[nH]c(-c2ccc(C(F)(F)F)cc2)nc1CN1CCC(N2C(=O)COc3ccccc32)CC1 6.33

###

SYSTEM_UNDER_TEST: human Cat S (Homo sapiens (Human), UniProt P25774)
ASSAY_PROTOCOL: Cathepsin enzyme inhibition assay (fluorogenic peptide substrate)
Format: biochemical
TEST_CONTEXT: human Cat S, enzyme 1 nM, substrate Z-Val-Val-Arg-AMC, pH 6.5; read-out: CatS IC50
pIC50: −log10 of the molar value.
Is pIC50 at least 7? Then Criterion met. If not, Criterion not met.

Hi team, for Cc1[nH]c(-c2ccc(Cl)cc2Cl)nc1CN1CCC(N2Cc3ccccc3NC2=O)CC1 , is the recorded pIC50 at or above 7? Criterion not met

Reported pIC50 reaches at least 7 for Cc1[nH]c(-c2ccc(Cl)c(Cl)c2)nc1CN1CCC(c2c[nH]c3ncccc23)CC1 ? Criterion not met

Answer whether pIC50 of Cc1[nH]c(-c2ccc(C(F)(F)F)cc2)nc1CN1CCC(n2c(=O)[nH]c3ccc(N4CCN(C)CC4)cc32)CC1 is greater than or equal to 7. Criterion not met

Hello, I need to know if Cc1nc(-c2ccc(C(F)(F)F)cc2)[nH]c1CN1CCC(n2cnc3c(=O)[nH]ccc32)CC1 has measured pIC50 not below 7. Thanks! Criterion not met

Please indicate if the recorded pIC50 for Cc1[nH]c(-c2ccc(C(F)(F)F)c(Cl)c2)nc1CN1CCC(n2c(=O)n(C)c3ccccc32)CC1 meets or exceeds 7. Criterion not met

Exam item: decide whether the reported pIC50 for Cc1[nH]c(-c2ccc(S(=O)(=O)C(F)(F)F)cc2)nc1CN1CCC(n2c(=O)n(C)c3ccccc32)CC1 is at least 7. Criterion met

Check this compound for pIC50 at or above 7: Cc1[nH]c(-c2ccc(C(F)(F)F)c(Cl)c2)nc1CN1CCC(c2c[nH]c3ncccc23)CC1 Criterion not met

Does pIC50 meet or surpass 7 for Cc1nc(-c2ccc(C(F)(F)F)cc2)[nH]c1CN1CCC(n2cc(-c3ccc(Br)cc3)[nH]c2=O)CC1 ? Criterion not met

Quick check: does Cc1[nH]c(-c2ccc(Cl)c(F)c2)nc1CN1CCC(N2Cc3ccccc3NC2=O)CC1 have pIC50 greater than or equal to 7? Criterion not met

Is the recorded value of pIC50 equal to or greater than 7 for this compound? Cc1[nH]c(-c2ccc(S(=O)(=O)C(F)(F)F)cc2)nc1CN1CCC(N2Cc3ccccc3NC2=O)CC1 Criterion met

Decide: is the reported value of pIC50 for CCCc1[nH]c(-c2ccc(C(F)(F)F)cc2)nc1CN1CCC(N2Cc3ccccc3NC2=O)CC1 equal to or greater than 7? Criterion not met

hey, is pIC50 for this one >= 7? CCCc1[nH]c(-c2ccc(C(F)(F)F)cc2)nc1CN1CCC(n2c(=O)n(C)c3ccccc32)CC1 Criterion not met

Please check the record Cc1[nH]c(-c2ccc(Cl)c(Cl)c2)nc1CN1CCC(N2Cc3ccccc3NC2=O)CC1 and state if its pIC50 is at or above 7. Criterion not met
